Ref: paper PMC4536467

- assayed.target: T1, RBP SH3-II (residue 1318–1382; ITC and crystallisation construct) (D. melanogaster)
- T1 chain: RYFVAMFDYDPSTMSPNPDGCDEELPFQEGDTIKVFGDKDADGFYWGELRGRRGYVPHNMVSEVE
- assay.text: ITC
assay.endpoint: pKd
To interpret pKd, take it as minus log10 of a concentration measured in moles per litre.

See these solved cases before continuing.
Ac-TRRRRKLPEIPKNKK-NH2 (Aplip1, D. melanogaster, residues 149-163 with the first PxxP motif; also called Aplip1 peptide; Aplip1-PxxP1 peptide; source: synthetic peptide (Leibniz Institute for Molecular Pharmacology)) [Aplip-PxxP1 peptide (149-TRRRRKLPEIPKNKK-163)]; 5.39
Ac-GRQLPQLPPKGT-NH2 (PxxP peptide named RIM2; May be a mammalian RIM2 motif or one of two motifs of Drosophila RIM; source: synthetic peptide (Leibniz Institute for Molecular Pharmacology)) [RIM2 peptide (GRQLPQLPPKGT)]; 4.70

For record Ac-GRQLPQVPVRSG-NH2 (PxxP peptide named RIM1; May be a mammalian RIM1 motif or one of two motifs of Drosophila RIM; source: synthetic peptide (Leibniz Institute for Molecular Pharmacology)) [RIM1 peptide (GRQLPQVPVRSG)] the listed pKd is 4.98

For record Ac-IGRRLPPTPSKPSTL-NH2 (also called Cacophony peptide; Cac-derived peptide; source: synthetic peptide (Leibniz Institute for Molecular Pharmacology)) [Cac peptide (1685-IGRRLPPTPSKPSTL-1699)] the listed pKd is 4.69
